Listed below: NADPH fluorescence slope values for each entry.
Target: Voltage-gated potassium channel subunit beta-2 (Rattus norvegicus) (UniProt P62483)
Sequence (P62483 whole entry, looked up): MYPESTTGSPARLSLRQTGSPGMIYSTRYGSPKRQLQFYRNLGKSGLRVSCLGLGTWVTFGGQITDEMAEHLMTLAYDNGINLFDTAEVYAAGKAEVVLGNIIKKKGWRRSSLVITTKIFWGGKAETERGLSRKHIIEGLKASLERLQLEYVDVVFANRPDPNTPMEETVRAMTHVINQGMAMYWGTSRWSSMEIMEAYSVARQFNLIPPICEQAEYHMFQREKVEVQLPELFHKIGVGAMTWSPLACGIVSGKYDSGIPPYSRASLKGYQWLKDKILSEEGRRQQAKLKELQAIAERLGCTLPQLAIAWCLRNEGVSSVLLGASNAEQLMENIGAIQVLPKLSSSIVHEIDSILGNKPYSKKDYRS
Assay: KvBeta positive modulators, primary screen, biochemical, NADPH fluorescence (AID 623);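 also: fluorescence intensity change per second fitted from 20 to 320 s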
Conditions: Recombinant KvBeta, NADPH fluorescence decrease slope, 10 min; at 10 µM; active compounds read low
I'd appreciate a reply containing only the number, no unit.

CCC(=O)NC1(C(F)(F)F)C(=O)Nc2c1c(=O)[nH]c(=O)n2Cc1ccco1 (centres undefined) ... -8.6e-05
Cc1ccc2cc3cc(C(=O)N4CC(C)CC(C)C4)oc3nc2c1 (centres undefined) ... 7.7e-06
Cc1ccc(CNC(=O)c2cc3c(=O)n4ccccc4nc3n(CC3CCCO3)c2=N)cc1 (centres undefined) ... -2.1e-05
Cn1c(N)c(C#N)c2c(c1=S)CSC(C)(C)C2 ... -6.4e-06
O=C(NC1CC1)C1CCC(=O)N1C1CCCC1 (centres undefined) ... 2.9e-05
CN1CCN(CC#CCC(O)(c2ccccc2)C2CCCC2)CC1 (centres undefined) ... -4.8e-05
Cc1nc2ccccc2c2oc(C(=O)NCCN3CCCCC3C)cc12 (centres undefined) ... -3.9e-05
Cc1cccn2c(=O)c3cc(C(=O)NCc4cccnc4)c(=N)n(C)c3nc12 ... -4.4e-05
Cn1cc(Cl)nc1C(O)c1ccccc1 (centres undefined) ... -2.6e-05
CC(=O)C1=C(O)C(=O)N(c2ccc(S(N)(=O)=O)cc2)C1c1ccccc1F (centres undefined) ... -0.000111

Input: Returns the measured NADPH fluorescence slope for the input compound. Input: Cc1nnc(SCC(=O)Nc2nccs2)s1
Output: -7.7e-05

Input: Returns the measured NADPH fluorescence slope for the input compound. Input: O=C(O)c1cc2sccc2s1
Output: -2.7e-05

Input: Returns the measured NADPH fluorescence slope for the input compound. Input: CCCN(CCC)CCNC(=O)c1cc2c(=O)n(C)c3ccccc3c2n1C
Output: -7.5e-05

Input: Returns the measured NADPH fluorescence slope for the input compound. Input: C=CCn1c(-c2ccc(OC)cc2)nc2ccccc21
Output: -4.7e-05

Input: Returns the measured NADPH fluorescence slope for the input compound. Input: CC1CN=C(N(C(=O)Nc2ccccc2)c2ccc(S(=O)(=O)N3CCOCC3)cc2)S1 (centres undefined)
Output: -5.2e-05

Input: Returns the measured NADPH fluorescence slope for the input compound. Input: CCOC(=O)CSc1nnc(CCc2nc3ccccc3[nH]2)n1C
Output: -2.8e-05
